Assay: recombinant UMI read abundance after kanamycin selection (control-corrected) (log10(CPM+1)); higher = more efficient recombination; extreme values may be limits of the assay; sequences stand for … in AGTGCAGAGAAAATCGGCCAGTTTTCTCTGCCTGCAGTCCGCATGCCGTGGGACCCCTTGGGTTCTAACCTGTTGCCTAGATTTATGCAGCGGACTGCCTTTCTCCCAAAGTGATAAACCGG…AGGTTGGTTTCACT; site = the 11-nt donor
Cut-off 0.01 on recombinant UMI read abundance (log10), inclusive. At or above means T; below means F.

[in] Does the reported recombinant UMI read abundance (log10) for TAGGATACATGGACCGGTTTTCCCGGTAATCCGTATTTGCA (site TAGAATACTTG) fall at or above the 0.01 mark?
[out] T

====

Assay: recombinant barcode read abundance after kanamycin selection (control-corrected) (log10(CPM+1)); higher = more efficient recombination; sequences stand for … in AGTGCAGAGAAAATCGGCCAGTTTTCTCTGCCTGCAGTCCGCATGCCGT…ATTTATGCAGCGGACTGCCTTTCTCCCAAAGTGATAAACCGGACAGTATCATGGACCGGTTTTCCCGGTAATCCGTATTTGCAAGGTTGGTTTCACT; site = the 11-nt target
metric.name: recombinant barcode read abundance (log10)

// known answers, use as guide
{"record.sequence": "GGCTCCCCTTGGGTTCTAACCTGTTGCGGGT [GGCTCCCCTCC_LTGcore_CT_RTGcore_AC] (site GGCTCCCCTCC) (LTG core: CT, RTG core: AC)", "result": 0.0344}
{"record.sequence": "GGCTCCCCCTGGGTTCTAACCTGTTGCGGAG [GGCTCCCCTCC_LTGcore_CC_RTGcore_CT] (site GGCTCCCCTCC) (LTG core: CC, RTG core: CT)", "result": 0}
{"record.sequence": "GGGCGTGCGTGGGTTCTAACCTGTTGCCTCG [GGGCGTGCTAG_LTGcore_CG_RTGcore_CG] (site GGGCGTGCTAG) (LTG core: CG, RTG core: CG)", "result": 0.0415}
{"record.sequence": "AAACAGTCATGGGTTCTAACCTGTTGCCTAG [AAACAGTCTAG_LTGcore_CA_RTGcore_CT] (site AAACAGTCTAG) (LTG core: CA, RTG core: CT)", "result": 1.38}
{"record.sequence": "AGGAGGTATTGGGTTCTAACCTGTTGCCTAT [AGGAGGTCTAG_LTGcore_AT_RTGcore_AT] (site AGGAGGTCTAG) (LTG core: AT, RTG core: AT)", "result": 0.643}
{"record.sequence": "TCTACCCCATGGGTTCTAACCTGTTGCTGTG [TCTACCCCTCA_LTGcore_CA_RTGcore_CA] (site TCTACCCCTCA) (LTG core: CA, RTG core: CA)", "result": 0.0357}

[in] Look up recombinant barcode read abundance (log10) of AGTCTTACTTGGGTTCTAACCTGTTGCCACG [AGTCTTACTTG_LTGcore_CT_RTGcore_CG] (site AGTCTTACTTG) (LTG core: CT, RTG core: CG) and report it.
[out] 0.0125

[in] Give me measured recombinant barcode read abundance (log10), please, for this sequence: TAGAGGGAGTGGGTTCTAACCTGTTGCGGCT [TAGAGGGCTCC_LTGcore_AG_RTGcore_AG] (site TAGAGGGCTCC) (LTG core: AG, RTG core: AG)
[out] 0.0923

[in] Provide recombinant barcode read abundance (log10) value for the following sequence: CGGTCCCCATGGGTTCTAACCTGTTGCCATG [CGGTCCCCTTG_LTGcore_CA_RTGcore_CA] (site CGGTCCCCTTG) (LTG core: CA, RTG core: CA)
[out] 0.185

[in] Item AAACATGCTTGGGTTCTAACCTGTTGCCTTA [AAACATGCTAG_LTGcore_CT_RTGcore_TA] (site AAACATGCTAG) (LTG core: CT, RTG core: TA) : provide recombinant barcode read abundance (log10)
[out] 0.485

[in] Assign recombinant barcode read abundance (log10) to the following record: GCGGGACGATGGGTTCTAACCTGTTGCCTTC [GCGGGACCTAG_LTGcore_GA_RTGcore_GA] (site GCGGGACCTAG) (LTG core: GA, RTG core: GA)
[out] 0.2

====

Experiment: recombinant UMI read abundance after kanamycin selection (control-corrected) (log10(CPM+1)); higher = more efficient recombination; extreme values may be limits of the assay; sequences stand for … in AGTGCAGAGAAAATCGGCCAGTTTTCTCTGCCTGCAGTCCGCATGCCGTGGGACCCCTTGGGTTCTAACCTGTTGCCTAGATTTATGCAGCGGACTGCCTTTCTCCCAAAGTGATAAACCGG…AGGTTGGTTTCACT; site = the 11-nt donor
metric.name: recombinant UMI read abundance (log10)
// no unit, no text: just the number

Past entries and their recorded results:
{"record.sequence": "CTGTGAACATGGACCGGTTTTCCCGGTAATCCGTATTTGTT (site CTGTGAACTAA)", "recombinant UMI read abundance (log10)": 1.15}
{"record.sequence": "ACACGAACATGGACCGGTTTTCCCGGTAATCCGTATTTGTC (site ACACGAGCTGA)", "recombinant UMI read abundance (log10)": 0}
{"record.sequence": "CCACGGCCATGGACCGGTTTTCCCGGTAATCCGTATTTGTA (site CCACGGCCTTA)", "recombinant UMI read abundance (log10)": 0}

[in] Output recombinant UMI read abundance (log10) of CTTCGAGCATGGACCGGTTTTCCCGGTAATCCGTATTTGTT (site CTTCGAGCTAA)
[out] 1.59

[in] Tell me its recombinant UMI read abundance (log10) given CCGTTAACATGGACCGGTTTTCCCGGTAATCCGTATTTGTG (site CCGTTACCTCA) as the entry.
[out] 0.0226

====

Assay: recombinant barcode read abundance after kanamycin selection (control-corrected) (log10(CPM+1)); higher = more efficient recombination; sequences stand for … in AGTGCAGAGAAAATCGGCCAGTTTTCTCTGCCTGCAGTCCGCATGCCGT…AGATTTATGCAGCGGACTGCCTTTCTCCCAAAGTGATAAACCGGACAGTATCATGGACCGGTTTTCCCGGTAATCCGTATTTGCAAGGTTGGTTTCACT; site = the 11-nt target
metric.name: recombinant barcode read abundance (log10)
Form rule: numeric answer, no unit written next to it.

Known results for sequences:
{"record.sequence": "TCGGAGTCTTGGGTTCTAACCTGTTGCGT (site TCGGAGTCTAA)", "numeric.value": 0.499}
{"record.sequence": "TCGGATACTTGGGTTCTAACCTGTTGCGT (site TCGGATACTAG)", "numeric.value": 0.265}
{"record.sequence": "TCGAAGCCTTGGGTTCTAACCTGTTGCCT (site TCGAAGCCTAG)", "numeric.value": 0.324}
{"record.sequence": "GTGTACCCTTGGGTTCTAACCTGTTGCGG (site GTGTACCCTAC)", "numeric.value": 1.94}
{"record.sequence": "ATATGGACTTGGGTTCTAACCTGTTGCTA (site ATAGGGACTTA)", "numeric.value": 0.159}
{"record.sequence": "TAGGATACTTGGGTTCTAACCTGTTGCAC (site TAGGATACTGT)", "numeric.value": 2.08}

Consider the record given below.
[in] Check the records and state recombinant barcode read abundance (log10) for GTCGTCACTTGGGTTCTAACCTGTTGCCT (site GTCGTCTCTAG)
[out] 0.0772

====

Each entry below carries its recorded recombinant UMI read abundance (log10).
Assay: recombinant UMI read abundance after kanamycin selection (control-corrected) (log10(CPM+1)); higher = more efficient recombination; extreme values may be limits of the assay; sequences stand for … in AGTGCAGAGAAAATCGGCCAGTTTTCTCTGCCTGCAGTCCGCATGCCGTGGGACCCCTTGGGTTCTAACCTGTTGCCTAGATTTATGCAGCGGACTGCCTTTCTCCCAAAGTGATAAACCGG…AGGTTGGTTTCACT; site = the 11-nt donor
The answer should be a number; do not append a unit.

Some solved cases for reference:
{"record.sequence": "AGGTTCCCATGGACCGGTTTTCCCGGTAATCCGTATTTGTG (site ACGTTCCCTCA)", "metric.name": "recombinant UMI read abundance (log10)", "numeric.value": 0.0097}
{"record.sequence": "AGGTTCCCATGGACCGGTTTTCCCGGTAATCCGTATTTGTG (site AGTTTCCCTCA)", "metric.name": "recombinant UMI read abundance (log10)", "numeric.value": 0.0518}
{"record.sequence": "GTAGTATCATGGACCGGTTTTCCCGGTAATCCGTATTTGCC (site GTAGTATCTGG)", "metric.name": "recombinant UMI read abundance (log10)", "numeric.value": 2.55}

[in] Specify reported recombinant UMI read abundance (log10) for the sequence shown: CTGCTGCCATGGACCGGTTTTCCCGGTAATCCGTATTTGCT (site CTGCTCCCTAG)
[out] 0.506

[in] Read off the recorded recombinant UMI read abundance (log10) for CCCTAGGCATGGACCGGTTTTCCCGGTAATCCGTATTTGCC (site CCCTAGTCTGG)
[out] 0

[in] Tell me recombinant UMI read abundance (log10) reported for GGCAGGCCATGGACCGGTTTTCCCGGTAATCCGTATTTGCT (site GGCAGGCCTAG)
[out] 0.861
